Property: IC50; scope: individual binders
assayedTarget: T1, N-formyl-methionyl-leucyl-phenylalanine (fMLF) receptor on elicited rat peritoneal neutrophils (rat, UniProt D4A7Q2 1-355)
T1 construct: Native receptor on whole neutrophils (PMNs); also called Rat FPR; formyl peptide receptor
T1 sequence: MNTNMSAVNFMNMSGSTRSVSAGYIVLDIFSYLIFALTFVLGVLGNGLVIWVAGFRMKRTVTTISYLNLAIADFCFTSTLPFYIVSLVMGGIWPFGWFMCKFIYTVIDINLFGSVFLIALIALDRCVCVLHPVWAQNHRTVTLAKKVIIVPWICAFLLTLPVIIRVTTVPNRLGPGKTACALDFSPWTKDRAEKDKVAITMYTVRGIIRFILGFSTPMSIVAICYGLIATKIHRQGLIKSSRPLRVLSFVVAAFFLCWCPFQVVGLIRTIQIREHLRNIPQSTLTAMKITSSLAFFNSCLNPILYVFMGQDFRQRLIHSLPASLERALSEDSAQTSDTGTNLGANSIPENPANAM
assayName: competition with 6 nM 3H-fMLF for binding to elicited rat peritoneal neutrophils, 4 C, filter harvest
Square brackets hold non-standard residues; d marks the D form. * marks the point of attachment. dimethylgly‑t‑butylgly‑cys‑gly = CN(C)CC(=O)N[C@H](C(=O)N[C@@H](CS)C(=O)NCC(=O)*)C(C)(C)C; Cyclopropanecarbonyl = O=C(C1CC1)*; Nle = CCCC[C@H](N)C(=O)O
measuredParameter: IC50

Cyclopropanecarbonyl-[Nle]LFWHK(dimethylgly‑t‑butylgly‑cys‑gly)G-OH (also: ReO (rhenium oxo) complex with Lys6 side-chain chelator, Rhenium complex as tested; also called ReORP553 17-04; RP553-17-04) [ReO-CyclopropylCONH-nleu-leu-phe-trp-his-lys(dimethylgly-t-butylgly-cys-gly)-gly-OH] | 1.77 µM
Cyclopropanecarbonyl-[Nle]LFSKK(dimethylgly‑t‑butylgly‑cys‑gly)G-OH (also: ReO (rhenium oxo) complex with Lys6 side-chain chelator, Rhenium complex as tested; also called ReORP553 17-08; RP553-17-08) [ReO-CyclopropylCONH-nleu-leu-phe-ser-lys-lys(dimethylgly-t-butylgly-cys-gly)-gly-OH] | 4.95 µM
Cyclopropanecarbonyl-[Nle]LFWKK(dimethylgly‑t‑butylgly‑cys‑gly)G-OH (also: ReO (rhenium oxo) complex with Lys6 side-chain chelator, Rhenium complex as tested; also called ReORP553 17-07; RP553-17-07) [ReO-CyclopropylCONH-nleu-leu-phe-trp-lys-lys(dimethylgly-t-butylgly-cys-gly)-gly-OH] | 0.76 µM
Cyclopropanecarbonyl-[Nle]LFWEK(dimethylgly‑t‑butylgly‑cys‑gly)G-OH (also: ReO (rhenium oxo) complex with Lys6 side-chain chelator, Rhenium complex as tested; also called ReORP553 17-01; RP553-17-01) [ReO-CyclopropylCONH-nleu-leu-phe-trp-glu-lys(dimethylgly-t-butylgly-cys-gly)-gly-OH] | 0.73 µM
Cyclopropanecarbonyl-[Nle]LFYHK(dimethylgly‑t‑butylgly‑cys‑gly)G-OH (also: ReO (rhenium oxo) complex with Lys6 side-chain chelator, Rhenium complex as tested; also called ReORP553 17-06; RP553-17-06) [ReO-CyclopropylCONH-nleu-leu-phe-tyr-his-lys(dimethylgly-t-butylgly-cys-gly)-gly-OH] | 1.22 µM
Cyclopropanecarbonyl-[Nle]LFYKK(dimethylgly‑t‑butylgly‑cys‑gly)G-OH (also: ReO (rhenium oxo) complex with Lys6 side-chain chelator, Rhenium complex as tested; also called ReORP553 17-09; RP553-17-09) [ReO-CyclopropylCONH-nleu-leu-phe-tyr-lys-lys(dimethylgly-t-butylgly-cys-gly)-gly-OH] | 5.93 µM
